ASSAY: Study 3: plasma concentration of active substance, single test subject
Format: in vivo, human
ASSAY SETUP: human, plasma, po, 4 mg; read-out: Time of peak concentration
ATTRIBUTE MEASURED: Tmax (h)
Provide only the numeric value, understood in h.

// returns reported Tmax for input CCOc1cc(CC(=O)NC(CC(C)C)c2ccccc2N2CCCCC2)ccc1C(=O)O (racemic) 1.5

###

Measured MRT of individual entries
ASSAY: clinical
ASSAY SETUP: human, plasma, iv, 1 mg
Report as a plain number; the unit h is understood.

COMPOUND	MRT, h
CCOc1cc(CC(=O)N[C@H](CC(C)C)c2ccccc2N2CCCCC2)ccc1C(=O)O [AG-EE 624 ZW]	3.3

Then there is this compound:
// returns reported MRT for input CCOc1cc(CC(=O)N[C@@H](CC(C)C)c2ccccc2N2CCCCC2)ccc1C(=O)O [AG-EE 623 ZW] 0.9

###

ASSAY: Study 2: plasma concentration, HPLC
Assay type: in vivo, human
ASSAY SETUP: human, plasma, po, 2 mg, 2 mg tablet, 1.00 h
From the text: Blood samples were taken at various times.
ATTRIBUTE MEASURED: concentration at 1 h (ng/mL)
# output: bare number, implied unit ng/mL

I'd like to know its concentration at 1 h. The compound in question is CCOc1cc(CC(=O)NC(CC(C)C)c2ccccc2N2CCCCC2)ccc1C(=O)O (racemic) [AG-EE 388 ZW] 81.3

###

ASSAY: clinical
ASSAY SETUP: human, plasma, po, 2 mg
ATTRIBUTE MEASURED: concentration at 0.75 h (ng/mL)
Write it as a number; the unit ng/mL goes unstated.

So what's the measured concentration at 0.75 h for this one? CCOc1cc(CC(=O)N[C@@H](CC(C)C)c2ccccc2N2CCCCC2)ccc1C(=O)O [AG-EE 623 ZW] 41.1

###

ASSAY: clinical
ASSAY SETUP: human, plasma, po, 2 mg
ATTRIBUTE MEASURED: concentration at 1.5 h (ng/mL)
// return numeric value only (unit: ng/mL, not printed)

Field request: concentration at 1.5 h | item: CCOc1cc(CC(=O)N[C@@H](CC(C)C)c2ccccc2N2CCCCC2)ccc1C(=O)O [AG-EE 623 ZW] 13.5

###

ASSAY: Study 1: plasma concentration, non-stereoselective HPLC
Assay type: in vivo, human
ASSAY SETUP: human, plasma, po, 2 mg, 2 mg capsule, 6.00 h
ATTRIBUTE MEASURED: concentration at 6 h (ng/mL)
Give just the numeric value; ng/mL need not be written.

I have this compound here, CCOc1cc(CC(=O)NC(CC(C)C)c2ccccc2N2CCCCC2)ccc1C(=O)O (racemic) , and I need its recorded concentration at 6 h. 4.2

###

ASSAY: clinical
ASSAY SETUP: human, plasma, iv, 1 mg
ATTRIBUTE MEASURED: concentration at 4 h
Write the numeric value and append its unit.

Fill in the blank: the reported concentration at 4 h of CCOc1cc(CC(=O)NC(CC(C)C)c2ccccc2N2CCCCC2)ccc1C(=O)O (racemic) is ____. 9.4 ng/mL

###

ASSAY: Study 2: plasma concentration, HPLC
Assay type: in vivo, human
ASSAY SETUP: human, plasma, po, 2 mg, 2 mg capsule, 0.75 h
Text: Blood samples were taken at various times.
ATTRIBUTE MEASURED: concentration at 0.75 h (ng/mL)
A number alone suffices; assume ng/mL.

Give its concentration at 0.75 h value. Item: CCOc1cc(CC(=O)NC(CC(C)C)c2ccccc2N2CCCCC2)ccc1C(=O)O (racemic) 66.4

Measured values drawn from patent US6143769A for this set.
